B1: Poly(rC)-binding protein 1, residues 278 to 350; numbered along this chain, Q15365 (parent)
chain: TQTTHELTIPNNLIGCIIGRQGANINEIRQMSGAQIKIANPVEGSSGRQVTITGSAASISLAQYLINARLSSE

- Variants of: B1
- test name: abundance fitness (aPCA) (normalised: wild type 0, dead -1); higher = more abundant; growth selection in yeast, the domain comes from the species named
- details: Homo sapiens
Labels assigned by abundance fitness range: low (below -0.3), middle (-0.3 to below -0.04), high (-0.04 or more)

Input line: For "N12G" , which abundance fitness bin applies?
Output line: middle

Input line: Okay, and "T3V" ?
Output line: high

Input line: Moving on to the next variant: "I9Y"
Output line: low
